- Tested system: MOR (Homo sapiens)
- Construct: host or cells: CHO (CHO-hMOR)
- Assay info: [35S]GTPγS binding assay, CHO-hMOR membranes
- Format: biochemical
- Stated conditions: relative to reference full agonist DAMGO; read-out: MOR % stim.
Assay metric: Emax (%)
Just the number please, in %, no unit attached.

The examples below pair each entry with its known result.
| Compound | Assay metric | Value |
| --- | --- | --- |
| CO[C@@]12CC[C@H](NCC(=O)O)[C@@H]3Oc4c(O)ccc5c4[C@@]31CCN(C)[C@@H]2C5 | Emax | 99 |
| CO[C@@]12CC[C@H](NC(C)C(=O)O)[C@@H]3Oc4c(O)ccc5c4[C@@]31CCN(C)[C@@H]2C5 (stereo in doubt) [Compound 15a] | Emax | 100 |
| CO[C@@]12CC[C@H](N[C@@H](CCCCN)C(=O)O)[C@@H]3Oc4c(O)ccc5c4[C@@]31CCN(C)[C@@H]2C5 | Emax | 90 |
| CO[C@@]12CC[C@H](N[C@@H](C(=O)O)C(C)C)[C@@H]3Oc4c(O)ccc5c4[C@@]31CCN(C)[C@@H]2C5 [Compound 16a] | Emax | 105 |
| CO[C@@]12CC[C@@H](N[C@@H](CCC(N)=O)C(=O)O)[C@@H]3Oc4c(O)ccc5c4[C@@]31CCN(C)[C@@H]2C5.Cl.Cl [Compound 12b] | Emax | 98 |

Give the measured Emax of CO[C@@]12CC[C@@H](N[C@H](C(=O)O)C3CCCCC3)[C@@H]3Oc4c(O)ccc5c4[C@@]31CCN(C)[C@@H]2C5 [Compound 18b] .
86

Give the measured Emax of CO[C@@]12CC[C@H](N[C@@H](CO)C(=O)O)[C@@H]3Oc4c(O)ccc5c4[C@@]31CCN(C)[C@@H]2C5 .
87

Give the measured Emax of CO[C@@]12CC[C@@H](N[C@@H](CO)C(=O)O)[C@@H]3Oc4c(O)ccc5c4[C@@]31CCN(C)[C@@H]2C5 .
101

Give the measured Emax of CO[C@@]12CC[C@H](N[C@H](C(=O)O)C(C)C)[C@@H]3Oc4c(O)ccc5c4[C@@]31CCN(C)[C@@H]2C5 .
95

====

Recorded pKi, one value per entry.
- Tested system: DOR (Rattus norvegicus)
- Construct: Membranes were prepared from Sprague-Dawley rat brains or guinea-pig brains according to the described procedures; tissue Labortierkunde und Laborgenetik, Medizinische Universität Wien
- Assay info: competition radioligand binding, rat brain membranes, [3H][Ile5,6]deltorphin II
- Stated conditions: rat brain membranes; read-out: opioid receptor binding Ki DOR
- Protocol: Competition binding assays using rat brain (MOR and DOR) and guinea-pig brain (KOR) membranes (Table 1) were performed according to published procedures.[44],[49] […] In addition, we have assessed binding at the human opioid receptors stably transfected in Chinese hamster ovary (CHO) cells (Table S1). […] Data were analyzed and graphically processed using the GraphPad Prism 5.0 Software (GraphPad Prism Software Inc., San Diego, CA). […] The Ki values were determined by the method of Cheng and Prusoff.[66] […]
Interpret pKi as the negative base-10 log of the concentration measured in mol/L.

| Compound | Value |
| --- | --- |
| CO[C@@]12CC[C@H](NCCC(=O)O)[C@@H]3Oc4c(O)ccc5c4[C@@]31CCN(C)[C@@H]2C5 [Compound 20a] | 7.22 |
| CO[C@@]12CC[C@H](N[C@@H](Cc3ccc(O)cc3)C(=O)O)[C@@H]3Oc4c(O)ccc5c4[C@@]31CCN(C)[C@@H]2C5.Cl.Cl [Compound 9a] | 8.66 |
| CO[C@@]12CC[C@H](N[C@H](C(=O)N[C@@H](Cc3ccc(O)cc3)C(=O)O)C(C)C)[C@@H]3Oc4c(O)ccc5c4[C@@]31CCN(C)[C@@H]2C5 [Compound 22a] | 8.92 |
| CO[C@@]12CC[C@@H](N[C@H](C(=O)O)C3CCCCC3)[C@@H]3Oc4c(O)ccc5c4[C@@]31CCN(C)[C@@H]2C5 [Compound 18b] | 8.89 |

Give the measured pKi of CO[C@@]12CC[C@H](N[C@H](C(=O)O)C3CCCCC3)[C@@H]3Oc4c(O)ccc5c4[C@@]31CCN(C)[C@@H]2C5 [Compound 18a] .
7.84

Give the measured pKi of CO[C@@]12CC[C@@H](N[C@@H](Cc3ccc(O)cc3)C(=O)O)[C@@H]3Oc4c(O)ccc5c4[C@@]31CCN(C)[C@@H]2C5.Cl.Cl [Compound 9b] .
8.41

Give the measured pKi of CO[C@@]12CC[C@@H](N[C@@H](CC(=O)O)C(=O)O)[C@@H]3Oc4c(O)ccc5c4[C@@]31CCN(C)[C@@H]2C5 [Compound 13b] .
7.65

Give the measured pKi of CO[C@@]12CC[C@H](N[C@@H](CC(=O)O)C(=O)O)[C@@H]3Oc4c(O)ccc5c4[C@@]31CCN(C)[C@@H]2C5 [Compound 13a] .
7.84

====

Measured pKi (KOR (Cavia porcellus))
Interpret pKi as the negative base-10 log of the concentration measured in mol/L.

| Compound | pKi |
| --- | --- |
| CO[C@@]12CC[C@H](N[C@H](C(=O)O)C3CCCCC3)[C@@H]3Oc4c(O)ccc5c4[C@@]31CCN(C)[C@@H]2C5 [Compound 18a] | 6.75 |
| CC[C@H](N[C@H]1CC[C@@]2(OC)[C@H]3Cc4ccc(O)c5c4[C@@]2(CCN3C)[C@H]1O5)C(=O)O [Compound 19a] | 6.84 |
| CO[C@@]12CC[C@H](N[C@@H](Cc3ccc(O)cc3)C(=O)O)[C@@H]3Oc4c(O)ccc5c4[C@@]31CCN(C)[C@@H]2C5.Cl.Cl | 7.40 |

Please state recorded pKi (tested on KOR (Cavia porcellus)) of CO[C@@]12CC[C@@H](N[C@@H](CCCCN)C(=O)O)[C@@H]3Oc4c(O)ccc5c4[C@@]31CCN(C)[C@@H]2C5
7.47

Please state recorded pKi (tested on KOR (Cavia porcellus)) of CO[C@@]12CC[C@@H](N[C@H](C(=O)O)C(C)C)[C@@H]3Oc4c(O)ccc5c4[C@@]31CCN(C)[C@@H]2C5
6.52

Please state recorded pKi (tested on KOR (Cavia porcellus)) of CO[C@@]12CC[C@H](N[C@@H](Cc3c[nH]c4ccccc34)C(=O)O)[C@@H]3Oc4c(O)ccc5c4[C@@]31CCN(C)[C@@H]2C5 [Compound 10a]
7.60

====

Measured Ki (MOR (Rattus norvegicus, UniProt P33535))
Just the number please, in nM, no unit attached.

The examples below pair each entry with its known result.
| Compound | Ki [nM] |
| --- | --- |
| CO[C@@]12CC[C@@H](N[C@H](C(=O)N[C@@H](Cc3ccc(O)cc3)C(=O)O)C(C)C)[C@@H]3Oc4c(O)ccc5c4[C@@]31CCN(C)[C@@H]2C5 [Compound 22b] | 0.44 |
| CO[C@@]12CC[C@H](N[C@H](C(=O)N[C@@H](Cc3ccc(O)cc3)C(=O)O)C(C)C)[C@@H]3Oc4c(O)ccc5c4[C@@]31CCN(C)[C@@H]2C5 [Compound 22a] | 0.82 |
| CO[C@@]12CC[C@@H](NCCC(=O)O)[C@@H]3Oc4c(O)ccc5c4[C@@]31CCN(C)[C@@H]2C5 [Compound 20b] | 1.04 |
| CC[C@H](N[C@H]1CC[C@@]2(OC)[C@H]3Cc4ccc(O)c5c4[C@@]2(CCN3C)[C@H]1O5)C(=O)O [Compound 19a] | 0.76 |
| CO[C@@]12CC[C@H](NCCC(=O)O)[C@@H]3Oc4c(O)ccc5c4[C@@]31CCN(C)[C@@H]2C5 [Compound 20a] | 1.3 |

Please state recorded Ki (tested on MOR (Rattus norvegicus, UniProt P33535)) of CO[C@@]12CC[C@@H](N[C@H](Cc3ccccc3)C(=O)O)[C@@H]3Oc4c(O)ccc5c4[C@@]31CCN(C)[C@@H]2C5 [Compound 17b]
1.28

Please state recorded Ki (tested on MOR (Rattus norvegicus, UniProt P33535)) of CO[C@@]12CC[C@H](N[C@H](C(=O)O)C(C)C)[C@@H]3Oc4c(O)ccc5c4[C@@]31CCN(C)[C@@H]2C5
3.16

Please state recorded Ki (tested on MOR (Rattus norvegicus, UniProt P33535)) of CO[C@@]12CC[C@@H](N[C@H](C(=O)O)C3CCCCC3)[C@@H]3Oc4c(O)ccc5c4[C@@]31CCN(C)[C@@H]2C5 [Compound 18b]
1.66

====

- Tested system: DOR (Homo sapiens, UniProt P41143)
- Assay info: [35S]GTPγS binding assay, CHO-hDOR membranes
- Stated conditions: [35S]GTPγS, CHO human DOR membranes
Recorded pEC50, one value per entry.
Interpret pEC50 as the negative base-10 log of the concentration measured in mol/L.

| Compound | pEC50 |
| --- | --- |
| CO[C@@]12CC[C@H](N[C@@H](CCC(N)=O)C(=O)O)[C@@H]3Oc4c(O)ccc5c4[C@@]31CCN(C)[C@@H]2C5 [Compound 12a] | 8.11 |
| CO[C@@]12CC[C@H](N[C@@H](CO)C(=O)O)[C@@H]3Oc4c(O)ccc5c4[C@@]31CCN(C)[C@@H]2C5 [Compound 6a] | 7.86 |
| CO[C@@]12CC[C@H](N[C@@H](CC(=O)O)C(=O)O)[C@@H]3Oc4c(O)ccc5c4[C@@]31CCN(C)[C@@H]2C5 [Compound 13a] | 8.00 |
| CO[C@@]12CC[C@@H](NCCCC(=O)O)[C@@H]3Oc4c(O)ccc5c4[C@@]31CCN(C)[C@@H]2C5 [Compound 21b] | 8.22 |

Alright, here's another compound for you.
Please state recorded pEC50 (tested on DOR (Homo sapiens, UniProt P41143)) of CO[C@@]12CCC(N[C@@H](CCC(=O)O)C(=O)O)[C@@H]3Oc4c(O)ccc5c4[C@@]31CCN(C)[C@@H]2C5 (stereo in doubt) [Compound 14a]
7.97
